# EC50 per record follows
# Test system: Influenza type A (strain A/PR/8/34, ATCC VR-95)
# assay_name: Influenza antiviral assay: inhibition of virus-induced cytopathic effects (CPE) in MDCK cells, XTT dye reduction
# Type: cell-based
# experimental_setup: Influenza A virus, H1N1 / PR/8, MDCK, 96 h, strain A/PR/8/34, MDCK cells, CPE inhibition at 4 days

Examples with answers:
> print(dat)
                                   molecule  value.reported
1  CCN1CN(C23c4ccccc4CC2Cc2cc(F)c(F)cc23)n2ccc(=O)c(O)c2C1=O (centres unmarked) [Compound A10]   250 to 375 nM
2  CCN1CN(C23c4cccc(F)c4CC2Cc2c(F)cccc23)n2ccc(=O)c(O)c2C1=O (centres unmarked) [Compound A34]        < 125 nM

Problem: Could you share which EC50 value was measured for CC1N(C)C(=O)c2c(O)c(=O)ccn2N1C12c3ccccc3CC1Cc1ccccc12 (centres unmarked) [Compound A158] ?
Result: 125 to 250 nM

Problem: Could you share which EC50 value was measured for CC1N(CC(F)F)C(=O)c2c(O)c(=O)ccn2N1C12c3ccccc3CC1Cc1c(F)cccc12 (centres unmarked) [Compound A139] ?
Result: 125 to 250 nM

Problem: Could you share which EC50 value was measured for CCN1CN(C23c4ccccc4CC2(C)Cc2cc(F)ccc23)n2ccc(=O)c(O)c2C1=O (centres unmarked) [Compound A116] ?
Result: < 125 nM

Numbers sourced from patent US12037333B2.
